# Tested on: Target C
# assay-name: Splicing RT-qPCR panel, Target C canonical junction (CJ) mRNA
# Type: cell-based, human
# settings: Homo sapiens, RT-qPCR panel, canonical junction mRNA; compound concentration having 50% response in CJ decrease; read-out: Target C IC50 (decrease in CJ mRNA levels)
quantity-name: IC50

// known answers, use as guide
CN(c1ccc(-c2ccc(-c3cnn(C)n3)c3cn[nH]c23)nn1)C1CCNCC1 | > 10 µM
CCN(c1ccc(-c2ccc(-c3cn[nH]c3)c3cn[nH]c23)nn1)C1CCNCC1 | > 10 µM
CN(c1ccc(-c2ccc(-c3ccc(=O)n(C)c3)c3scnc23)nn1)C1CC(C)(C)NC(C)(C)C1 | > 10 µM
c1nc2c(-c3cn[nH]c3)ccc(-c3cnc(N4CCN5CCCCC5C4)nn3)c2s1 (stereo not drawn) | 1 to 10 µM
CN(c1ncc(-c2ccc(-n3cccn3)c3[nH]ncc23)nn1)[C@@H]1C[C@H]2CCC[C@@H](C1)N2C | 1 to 10 µM
CCN(c1ccc(-c2ccc(-c3cn[nH]c3)c3cn[nH]c23)nn1)C1CC(C)(C)NC(C)(C)C1 | > 10 µM

Could you tell me IC50 for each of these molecules? They are listed below.
1. CN(c1ncc(-c2ccc(-n3cncn3)c3[nH]ncc23)nn1)[C@@H]1C[C@H]2CCC[C@@H](C1)N2
2. CCN(c1ccc(C2=CC=C(c3cn[nH]c3)C3N=CSC23)nn1)[C@@H]1C[C@H]2CC[C@@H](C1)N2 (stereo partly drawn)
3. c1cnn(-c2ccc(-c3cnc(O[C@H]4C[C@H]5COC[C@@H](C4)N5)nn3)c3cn[nH]c23)c1
4. Cn1cc(-c2c(F)cc(-c3ccc(OC4CC(C)(C)NC(C)(C)C4)nn3)c3[nH]ncc23)cn1
5. CC(C)(C)NC1CCN(c2ccc(-c3ccc(-c4cn[nH]c4)c4cn[nH]c34)nn2)C1 (stereo not drawn)
6. c1cnn(-c2ccc(-c3ccc(O[C@@H]4C[C@H]5CC[C@@H](C4)N5)nn3)c3scnc23)c1
7. CC(C)(C)C1CN(c2ncc(-c3ccc(-n4cccn4)c4[nH]ncc34)nn2)CCN1 (stereo not drawn)

Output:
< 0.1 µM
0.1 to 1 µM
> 10 µM
1 to 10 µM
1 to 10 µM
> 10 µM
0.1 to 1 µM

Could you tell me IC50 for each of these molecules? They are listed below.
1. CC(C)(C)NC1CCN(c2ncc(-c3ccc(-c4cn[nH]c4)c4ncsc34)nn2)C1 (stereo not drawn)
2. c1n[nH]cc1-c1ccc(-c2ccc(NC3CCNCC3)nn2)c2[nH]ncc12

Output:
["1 to 10 µM", "> 10 µM"]

* * *

# Tested on: Target C
# assay-name: Splicing RT-qPCR panel, Target C canonical junction (CJ) mRNA
# Assay type: cell-based, human
# settings: Homo sapiens, RT-qPCR panel, canonical junction mRNA; compound concentration having 50% response in CJ decrease; read-out: Target C IC50 (decrease in CJ mRNA levels)
quantity-name: IC50

Could you tell me IC50 for each of these molecules? They are listed below.
1. Cc1nc(-c2ccc(-c3cnc(N(C)[C@@H]4C[C@H]5CCC[C@@H](C4)N5)nn3)c3scnc23)cs1 [Compound 579]
2. Cc1[nH]ncc1-c1ccc(-c2ccc(N(C)C3CC(C)(C)NC(C)(C)C3)nn2)c2ncsc12 [Compound 176]
3. [2H]C([2H])([2H])N(c1ccc(-c2ccc(-c3cn[nH]c3)c3cn[nH]c23)nn1)[C@@H]1C[C@H]2CCC[C@@H](C1)N2 [Compound 296]
4. CC1(C)CC(Oc2ccc(-c3ccc(-n4cccn4)c4[nH]ncc34)nn2)CC(C)(C)N1 [Compound 554]
5. Cn1ncc(-c2ccc(-c3ccc(O[C@@H]4C[C@H]5CC[C@@H](C4)N5)nn3)c3[nH]ncc23)n1 [Compound 321]
6. CCc1n[nH]c2c(-c3ccc(N(C)[C@@H]4C[C@H]5CC[C@@H](C4)N5)nn3)ccc(-c3cnn(C)n3)c12 [Compound 359]
7. C[C@@H]1CN(c2ncc(-c3ccc(-c4cn[nH]c4)c4ncsc34)nn2)C[C@H](C)N1 [Compound 562]

Output:
1: 100 to 1000 nM; 2: > 10000 nM; 3: < 100 nM; 4: 1000 to 10000 nM; 5: 100 to 1000 nM; 6: > 10000 nM; 7: > 10000 nM
